// data source = patent US20250090540A1

# key: entry, value: pIC50
Molecular target: H1047R PIK3CA enzyme (Homo sapiens, UniProt P42336, H1047R)
Sequence (P42336 whole entry H1047R): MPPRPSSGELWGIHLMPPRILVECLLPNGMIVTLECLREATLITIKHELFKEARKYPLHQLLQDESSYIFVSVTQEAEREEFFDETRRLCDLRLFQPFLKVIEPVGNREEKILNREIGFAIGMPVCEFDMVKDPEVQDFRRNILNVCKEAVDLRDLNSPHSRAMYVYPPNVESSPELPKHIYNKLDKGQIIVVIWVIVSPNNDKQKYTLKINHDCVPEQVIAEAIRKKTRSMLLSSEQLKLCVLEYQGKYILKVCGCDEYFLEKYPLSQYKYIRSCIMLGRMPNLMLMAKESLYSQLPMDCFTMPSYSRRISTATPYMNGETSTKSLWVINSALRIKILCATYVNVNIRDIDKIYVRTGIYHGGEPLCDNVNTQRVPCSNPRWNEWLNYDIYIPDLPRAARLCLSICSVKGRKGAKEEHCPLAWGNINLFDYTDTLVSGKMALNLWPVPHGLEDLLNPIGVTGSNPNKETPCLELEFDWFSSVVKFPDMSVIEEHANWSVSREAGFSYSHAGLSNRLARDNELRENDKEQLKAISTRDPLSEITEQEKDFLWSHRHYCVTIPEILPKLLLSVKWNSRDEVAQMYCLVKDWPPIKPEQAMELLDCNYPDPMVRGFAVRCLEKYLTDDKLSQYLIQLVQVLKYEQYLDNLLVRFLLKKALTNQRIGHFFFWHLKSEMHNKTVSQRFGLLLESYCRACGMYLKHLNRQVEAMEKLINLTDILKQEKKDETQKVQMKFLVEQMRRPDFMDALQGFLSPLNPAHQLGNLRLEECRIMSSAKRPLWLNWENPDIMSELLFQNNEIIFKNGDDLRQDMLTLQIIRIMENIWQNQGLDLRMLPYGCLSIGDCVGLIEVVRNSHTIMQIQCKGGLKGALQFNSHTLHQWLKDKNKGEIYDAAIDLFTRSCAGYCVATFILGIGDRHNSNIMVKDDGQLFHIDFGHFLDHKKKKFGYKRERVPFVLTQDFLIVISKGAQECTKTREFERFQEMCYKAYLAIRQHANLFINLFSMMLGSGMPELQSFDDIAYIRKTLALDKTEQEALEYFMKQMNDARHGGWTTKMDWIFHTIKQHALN
Sequence (P27986 whole entry partner): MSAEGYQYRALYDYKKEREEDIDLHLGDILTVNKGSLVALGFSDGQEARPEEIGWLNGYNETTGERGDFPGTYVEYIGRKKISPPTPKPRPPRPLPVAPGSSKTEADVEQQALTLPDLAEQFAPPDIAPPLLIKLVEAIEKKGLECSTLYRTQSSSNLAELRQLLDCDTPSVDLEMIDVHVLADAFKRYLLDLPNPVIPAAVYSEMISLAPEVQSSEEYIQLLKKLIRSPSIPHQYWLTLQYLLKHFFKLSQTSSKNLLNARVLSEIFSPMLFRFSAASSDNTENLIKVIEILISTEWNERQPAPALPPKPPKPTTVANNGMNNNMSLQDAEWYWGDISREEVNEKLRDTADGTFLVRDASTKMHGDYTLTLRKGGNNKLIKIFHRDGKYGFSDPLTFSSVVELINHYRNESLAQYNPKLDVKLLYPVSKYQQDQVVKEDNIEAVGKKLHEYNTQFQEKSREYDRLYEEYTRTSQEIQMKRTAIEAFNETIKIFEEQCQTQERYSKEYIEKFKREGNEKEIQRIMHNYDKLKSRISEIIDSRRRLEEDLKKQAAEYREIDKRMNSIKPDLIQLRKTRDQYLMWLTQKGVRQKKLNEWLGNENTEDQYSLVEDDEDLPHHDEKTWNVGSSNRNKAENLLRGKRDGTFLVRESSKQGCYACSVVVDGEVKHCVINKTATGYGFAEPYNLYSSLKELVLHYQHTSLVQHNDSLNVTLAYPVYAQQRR
Experiment: ADP-Glo Biochemical PIK3CA Kinase Assay
pIC50: −log10 of the molar value.

Recorded pIC50 of CNC(=O)c1cnc(NCc2cncn2C)c(NC(=O)c2cc(F)cc(C(F)(F)F)c2)c1 [I-323] , please.
4.00 to 5.00

* * *

Biological target: H1047R PIK3CA enzyme (Homo sapiens, UniProt P42336, H1047R)
Assay: ADP-Glo Biochemical PIK3CA Kinase Assay
Conditions: ADP-Glo biochemical PIK3CA kinase assay
Readout type: IC50

Known IC50 results, listed for orientation:
1. CNC(=O)c1cnc(Nc2ccccc2C)c(NC(=O)C2CCCCC2(F)F)c1 (stereo not drawn); 10000 to 100000 nM
2. CNC(=O)c1cnc(Nc2ccccc2C)c(NC(=O)c2csc3cc(F)cc(F)c23)c1; 10000 to 100000 nM

Recorded IC50 of "Cc1ccccc1Nc1ncc(C(=O)Nc2cn(C)cn2)cc1NC(=O)c1csc2ccccc12" , please.
100 to 500 nM

Recorded IC50 of CC(NC(=O)c1cnc(N)c(NC(=O)c2csc3ccccc23)c1)c1cn[nH]c1 (stereo not drawn) , please.
1000 to 10000 nM

Recorded IC50 of "CNC(=O)c1cnc(Nc2ccccc2C)c(NC(=O)c2ccc(C#N)c(C(F)(F)F)c2)c1" , please.
500 to 1000 nM
